Biological target: Estrogen receptor alpha (ERα) (Homo sapiens, UniProt P03372)
Sequence (P03372 1-595): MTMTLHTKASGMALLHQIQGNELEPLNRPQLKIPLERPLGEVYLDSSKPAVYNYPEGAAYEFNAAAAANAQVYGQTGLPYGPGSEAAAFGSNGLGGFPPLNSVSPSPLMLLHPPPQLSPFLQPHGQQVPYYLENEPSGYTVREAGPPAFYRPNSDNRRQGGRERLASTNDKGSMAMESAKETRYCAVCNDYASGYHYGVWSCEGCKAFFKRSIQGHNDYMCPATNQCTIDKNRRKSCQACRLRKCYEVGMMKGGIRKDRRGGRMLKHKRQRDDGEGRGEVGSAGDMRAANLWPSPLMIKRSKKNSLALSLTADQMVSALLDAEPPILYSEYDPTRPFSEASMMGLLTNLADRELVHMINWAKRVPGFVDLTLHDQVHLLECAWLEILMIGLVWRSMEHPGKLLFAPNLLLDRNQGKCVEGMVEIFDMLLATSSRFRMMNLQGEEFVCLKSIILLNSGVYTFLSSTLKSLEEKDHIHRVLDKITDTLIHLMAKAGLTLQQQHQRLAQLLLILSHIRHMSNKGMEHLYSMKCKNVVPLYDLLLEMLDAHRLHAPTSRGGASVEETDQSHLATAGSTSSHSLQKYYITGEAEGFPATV
Experiment: Receptor Selection and Amplification Technology (R-SAT) functional receptor assay, ERα
Settings: transfected NIH3T3 cells, agonist activity
pEC50: −log10 of the molar value.
Please use rule met whenever pEC50 is not below 6, and rule not met whenever it is.

Solved cases (4 shown):
1. Oc1ccc(C2(c3ccccc3)CCCCC2)cc1	rule not met
2. Oc1ccc(C2(c3ccccc3)CCCCCCC2)cc1	rule met
3. Oc1ccc(C2(c3ccc(F)cc3F)CCCCC2)cc1	rule not met
4. Oc1ccc(C2(c3ccccc3)CCC(C(F)(F)F)CC2)cc1 (stereo not shown)	rule not met

Qu. Determine whether this compound has pEC50 no lower than 6: CC(C)C1CCC(c2ccc(O)cc2)(c2cccc(F)c2)CC1 (stereo not shown)
Ans. rule not met

Qu. Answer whether pEC50 of Oc1ccc(C2(c3ccccc3)CCCCCC2)cc1 is greater than or equal to 6.
Ans. rule met
